Test system: U2OS
Test: Multiplex assay against U2OS
Type: toxicity, cell-based
Conditions: human, 12 h, 10 µM, compound concentration 10 uM, replicate 2
TEST_READOUT: Population Pyknosed Nuclei (%)
Supply the numeric figure in %, leaving out any unit text.

COMPOUND: C[C@H](N)COC(=O)[C@@H](CCCCN)NC(=O)Cc1c(-c2ccc3ccccc3c2)[nH]c2c1ccc1ccccc12
Population Pyknosed Nuclei (%): 1

stdin: Recorded Population Pyknosed Nuclei (%) for CCCCCC(O)/C=C/[C@H]1C(=O)CC(O)C1C/C=C\CCCC(=O)O (some centres undefined) , please?
stdout: 9

stdin: Same for Cc1sc2c(c1C)C(c1ccc(Cl)cc1)=N[C@@H](CC(=O)NCCCCCCCCNC(=O)COc1cccc3c1C(=O)N(C1CCC(=O)NC1=O)C3=O)c1nnc(C)n1-2 (some centres undefined)
stdout: 4

stdin: Same for CCCCC1=NC2(CCCC2)C(=O)N1Cc1ccc(-c2ccccc2-c2nnn[nH]2)cc1
stdout: 8

---

The entries below are paired with their reported Population Pyknosed Nuclei (%).
Tested on: Fibroblast
Experiment: Multiplex assay against human fibroblast
Assay type: toxicity, cell-based
Conditions: 12 h, 10 µM, compound concentration 10 uM, replicate 1
Supply the numeric figure in %, leaving out any unit text.

COMPOUND: O=C1[C@H](Cc2ccc(O)cc2)N2C(=O)CCN(C(=O)NCc3ccccc3)[C@H]2CN1Cc1cccc2ccccc12
TEST_READOUT: Population Pyknosed Nuclei (%)
OBSERVED_MEASUREMENT: 23

stdin: Entry CCc1cc2cc(NS(=O)(=O)c3ccc(C#N)cc3)ccc2n(CC)c1=O , system Fibroblast: what Population Pyknosed Nuclei (%) was measured?
stdout: 26

stdin: Same for Cc1cnc(-c2cc(N3CCN(C(=O)CCS(C)(=O)=O)CC3)ncc2Cl)c(C)c1
stdout: 14

stdin: Same for Br.CS(=O)(=O)Nc1c(O)ccc2c1CCCC2C1=NCCN1 (stereo not drawn)
stdout: 31

stdin: Same for Cc1noc(-c2ccc(-c3ccc(CC(=O)O)cc3)cc2)c1NC(=O)O[C@H](C)c1ccccc1Cl
stdout: 17

stdin: Same for CC[C@@H](C)Nc1nc(C)nc2c(-c3ccc(OC)nc3C)c(C)nn12
stdout: 29

stdin: Same for CC(C)(C)c1cc(NC(=O)Nc2ccc(-c3cn4c(n3)sc3cc(OCCN5CCOCC5)ccc34)cc2)no1
stdout: 8

stdin: Same for COC[C@@H](c1ccc(C(F)(F)F)cc1)N1CCN(C2(C)CCN(C(=O)c3c(C)ncnc3C)CC2)C[C@@H]1C.O=C(O)/C=C\C(=O)O [VICRIVIROC MALEATE]
stdout: 14

stdin: Same for CC(C)c1noc(N2CCC(COc3ccc(-c4ccc(S(C)(=O)=O)cc4)nc3)CC2)n1
stdout: 26

stdin: Same for COc1cccc2c1c(NS(=O)(=O)c1ccc(Cl)s1)nn2Cc1cccc(CNC(=O)C(C)(C)O)c1
stdout: 13

stdin: Same for C[C@H](N)COC(=O)[C@@H](CCCCN)NC(=O)Cc1c(-c2ccc3ccccc3c2)[nH]c2c1ccc1ccccc12
stdout: 16

---

The entries below are paired with their reported Population Tubulin-Different-Phenotype (%).
Tested on: HEK-293T
Assay: Multiplex assay against HEK293T
Type: toxicity, cell-based
Conditions: human, 48 h, 1 µM, compound concentration 1 uM, replicate 2
Supply the numeric figure in %, leaving out any unit text.

COMPOUND: CC(=O)Nc1cccc2c1c(Sc1ccc(Cl)cc1)c(C)n2CC(=O)O [AZD1981]
OBSERVED_MEASUREMENT: 12
--
COMPOUND: CCc1cc2cc(NS(=O)(=O)c3ccc(C#N)cc3)ccc2n(CC)c1=O
OBSERVED_MEASUREMENT: 12
--
COMPOUND: O=C(NCCN1CCC(n2c(=O)[nH]c3cc(Cl)ccc32)CC1)c1ccc(F)cc1 [HALOPEMIDE]
OBSERVED_MEASUREMENT: 10
--
COMPOUND: N#Cc1cc(F)cc(-c2nc(-c3ccc(F)cn3)no2)c1
OBSERVED_MEASUREMENT: 10
--
COMPOUND: CC(C)c1noc(N2CCC(COc3ccc(-c4ccc(S(C)(=O)=O)cc4)nc3)CC2)n1 [GSK-1292263]
OBSERVED_MEASUREMENT: 10

stdin: Recorded Population Tubulin-Different-Phenotype (%) for Cc1sc2c(c1C)C(c1ccc(Cl)cc1)=N[C@@H](CC(=O)NCCCCCCCCNC(=O)COc1cccc3c1C(=O)N(C1CCC(=O)NC1=O)C3=O)c1nnc(C)n1-2 (some centres not stated) , please?
stdout: 42

stdin: Same for NCCc1cn(S(=O)(=O)c2c(Cl)nc3sccn23)c2ccccc12.O=C(O)C(=O)O
stdout: 14

stdin: Same for CCCCCC(O)/C=C/[C@H]1C(=O)CC(O)C1C/C=C\CCCC(=O)O (some centres not stated)
stdout: 7

stdin: Same for CN1CCN(c2cc(-c3ccccc3)nc(N)n2)CC1
stdout: 9

stdin: Same for C[C@H](N)COC(=O)[C@@H](CCCCN)NC(=O)Cc1c(-c2ccc3ccccc3c2)[nH]c2c1ccc1ccccc12
stdout: 17

stdin: Same for Cc1cccc(NC(=O)CN2CCC(c3ccccn3)CC2)c1.Cl.Cl
stdout: 13

stdin: Same for O=C(CCCc1ccccc1)Nc1nc2ccccc2c(=O)s1
stdout: 13

stdin: Same for CC(C)(C)c1cc(NC(=O)Nc2ccc(-c3cn4c(n3)sc3cc(OCCN5CCOCC5)ccc34)cc2)no1 [QUIZARTINIB]
stdout: 18

stdin: Same for CCCOc1ccc2[nH]cc(C3=CCNCC3)c2n1.Cl
stdout: 9

stdin: Same for Br.CS(=O)(=O)Nc1c(O)ccc2c1CCCC2C1=NCCN1 (configuration not stated)
stdout: 12

stdin: Same for Cl.N=C(N)NC(=O)Cc1c(Cl)cccc1Cl [GUANFACINE HYDROCHLORIDE]
stdout: 14

stdin: Same for O=C1[C@H](Cc2ccc(O)cc2)N2C(=O)CCN(C(=O)NCc3ccccc3)[C@H]2CN1Cc1cccc2ccccc12
stdout: 19

stdin: Same for COc1cccc2c1c(NS(=O)(=O)c1ccc(Cl)s1)nn2Cc1cccc(CNC(=O)C(C)(C)O)c1
stdout: 10

stdin: Same for CN(C)C(=O)Cn1cc(-c2ccc(-c3cncc4ccccc34)cc2)cn1
stdout: 17

stdin: Same for N#Cc1c(Oc2cccc(OS(=O)(=O)CCCC(F)(F)F)c2)cccc1C(F)(F)F
stdout: 13

stdin: Same for CCCCC(=O)N(Cc1ccc(-c2ccccc2-c2nnn[nH]2)cc1)[C@H](C(=O)O)C(C)C
stdout: 9
